- TARGET_OR_SYSTEM: T1, human tissue factor (TF), membrane-bound on cells (human, UniProt P13726 33-295)
- T1 construct: whole, on cells; also called cellular TF
- ASSAY_METHOD_TEXT: FACS, TF transfected CHO cells (S1015-TF), 7.5 µg/mL
READOUT_LABEL: Max MFI
Respond using a number only.

BINDER	READOUT_LABEL	ENDPOINT_VALUE
anti-TF HuMab 003 (antibody, V domains shown, Human monoclonal antibody from HuMab mice; also called HuMab-TF-003) VH: QVQLVQSGAEVKKPGSSVKVSCKAPRGTFSYYTISWVRQAPGQGLEWMGRIIPILGVANYAQKFQGRVTITADKSTSTAYMELSSLRSEDTAVYYCAREGDRRYFDYWGQGTLVTVSS VL: AIQLTQSPSSLSASVGDRVTITCRASQDISSALAWYQQKPGKAPKLLIYDASILESGVPSRFSGSGSGTDFTLTISSLQPEDFATYYCQQFNSYPLTFGGGTKVEIK	Max MFI	4250

# Max MFI of anti-TF HuMab 101 (antibody, V domains shown, Human monoclonal antibody from HuMab mice) VH: EVQLLESGGGLVQPGGSLRLSCAASGFTFSNYAMSWVRQAPAKGLDWVSGISGSGVTTYYADSVKGRFTISRDNSKDTLYLQMNSLRAEDTAVYFCAKTPWGYYFDYWGQGILVAVSS VL: DIQMTQSPSSLSASVGDRVTITCRASQGISSWLAWYQQKPEKAPKSLIYAASSLQSGVPSRFSGSGSGTDFTLTISSLQPEDFATYYCQQYNSYPLYTFGQGTKLEIK = 5860

For reference, reported Max MFI for anti-TF HuMab 092-A09 (antibody, V domains shown, Human monoclonal antibody from HuMab mice) VH: EVQLLESGGGLVQPGGSLRLSCAASGFTFNNYAMSWVRQAPGKGLEWVSSISGSGGRTYYADSVKGRFTISRDNSKNTLFLQMNSLRAEDTAVYYCAKTPWGYYFDYWGQGTLVTVSS VL: DIQMTQSPSSLSASVGDRVTITCRASQGISSRLAWYQQKPEKAPKSLIYAASSLQSGVPSRFSGSGSGTDFTLTISSLQPEDFATYYCQQYNSYPYTFGQGTKLEIK stands at 5410

// provenance: patent US20110300156A1
